Origin of the recorded values: patent US20250361298A1

measuredTarget: cp1338
protocolText: BLI
readoutLabel: Kd (pM)
Enter your answer as a number in pM; do not include the unit.

So for cp203 (Fc fusion, biotinylated for BLI capture (site not stated)) NRMRCYNCGGSPSSSCKEAVTTCGEGRPQPGLEQIKLPGNPPVTLIHQHPACVAAHHCNQVETESVGDVTYPAHRDCYLGDLCNS , the logged Kd turned out to be 695
